# Assay overview: yeast display, Sf9 membrane polyspecificity reagent, FACS + sequencing; frameworks hold sequencing errors

Construct sequence	polyreactivity (PSR sort gate)
QVQLVQSCGGLVQAGGSLRLSCATSGFTFPLYAMGWYRQAPGKERELVAAISSGSSTYYADSVKGRFTISRDNAKNTVYLQMNSLKPEDTAVYYCAAQKRGSPGYRRDYWGQGTQVTVSS	high polyreactivity
QVQLVESGGGLVQAGGSLRLSCAASGRIFRQYAMGLYRQAPGKERELVAAISRRGTSTYYADSVKGRFTISRDNAKNTVYLQMNSLKPEDTAVYYCAAGGVYSIYRTSRVGYDYWGQGTQVTVSS	high polyreactivity
QVQLVESGGGLVQAGGSLRLSCAASGFTFFRYAMGWYRQAPGKERELVASITSGGSTNYADSVKGRFTISRDNAKNTVYLQMNSLKPEDTAVYYCAAGSSFFRWVYEATGFYYWGQGTQVTVSS	high polyreactivity

* * *

# Assay overview: yeast display, Sf9 membrane polyspecificity reagent, FACS + sequencing; frameworks hold sequencing errors
Measured parameter: polyreactivity (PSR sort gate)

Construct sequence	Reported
QVQLVESGGGLVQAGGSLRLSCAASGSIFNKYAMGWYRQAPGKERELVATISFRGGSTYADSVKGRFTISRDNAKNTVYLQMNSLKPEDTAVYYCATKSGRNSPRMDYWGQGTQVTVSS	high polyreactivity
QVQLVESGGGLVQAGGSLRLSCAASGRIFYVNGMGWYRQAPGNERELVAAIRISGGRTYYADSVKGRFTISRDYAKYTVYFQMNSLKPEDTAVYFCAKRYYYPYAGYDYWGQGTQVTVSS	high polyreactivity

* * *

# Assay overview: yeast display, Sf9 membrane polyspecificity reagent, FACS + sequencing; frameworks hold sequencing errors

Construct sequence	polyreactivity (PSR sort gate)
QVQLVESGGGLVQAGGSLRLSCAASGRTFYLYAMGWYRQAPGKVRELVAAITRRGGSPYYADSVKGRFTISRDNAKNTVYLQMNSLKPEDTAVSYCAADRPGTGYSDYDYWGQGTQVTVSS	high polyreactivity
QVQLVETGGGLVQAGCSLRLSCASSGFIFVRNAMGRYRQAPGIERELVATINSGGGTNYADSVKWRFTISRDNAKNSVYFQMNSLKPDDTAVYYCAAGQTSPERYGLGYWGQGSQVTVSS	low polyreactivity
QVQLVESGGGLVQAGRSLRLSCAASGRTFPYYAMGWYRQAHGKEREFVAAISRRGASTYYADSVKGRFTISRDNAKNTVNLQMNSLKPEDTAVYYCNAVYRCYYSGELDYWGQGTQVTVSS	high polyreactivity
QVQLVESGGGLVQAGGSLRLSCAASGSIFSYYAMGWNRQAHGKERELVASITRGGSTYYADSVKGRFTISRDNAKNTVYLQMNSLKPEDSAVYYCAAAARYYSRYDFPNNYWGQVTQVTVSS	low polyreactivity
QVQLVESGGGLVQAGGSLRLSCAASGSIITWNAMGWYRQAPGKERELVAALDWDGGSTYYADSVKGRFTISRDNAKNTVYFQMNRLKPEDTAVYYCAATYGWYTGRYPSGHYYYWGQGTQVTVSS	low polyreactivity
QVQLVESGGGLVQAGGSLRLSCAASGITILNYVMGWYRQAPGKERELVAGINFSGDGTYYADSVKGRFTISRDNAKNTVFLLMNSLKPEDTAVYYCAADWLSVSRIYYSWGQGTQVTVSS	low polyreactivity
LVQLVQSGGGLVQAGGSLRLSCAASGLTFDYYAKGWYRQAPGKERELVAVISSGGSTYYADSVKGRITISRDNAKNTVYLQMNSLKTEDTAVYYCAAEIYRYRLRDEYDYWGQGTQVTVSS	low polyreactivity
QVQLVESGGGLVQAGGSLRLICAASGRTFADYAMGWYRQAPGKERELVAAISWRGGSTYYADSVKGRFTISRDNAKITVYLQMNSLKPEDTAVYYSNKAYPAHYDYLGQGTQVTVSS	low polyreactivity
QFQLVESGGGLVQAGGSLRLSCAASGFIFSFYAMGWYRQAPGKERELVARINWTGGSTYYADSVKGRFTISRDNAKNSVYLQMNSLKPEDTAVYYCARPVRRIIGVTDEYWGQGTQVTVSS	low polyreactivity
QVQLVESGGGLVQAGRILRLSCAASGIILGRYAMGWYRQAHGKERELVAAITASGGRTYYADSVKGRFTISRDNAKNTVYLQMNSLKPEDTAVYYCNTVYWGYKSHYDYWGQGTQVTVSS	high polyreactivity
QVQLVESRGGLVQAGGSHRLSCADAGYSNIANAMGSDRQAPGKERELVAAISIGGNTKYADSVKGRFTISRDNAKNTVYLQMNSLKPEDTAVYYCAVEDQYYSVSLGGEYDYWGQGTQVTVSS	high polyreactivity

Source listed as the nanobody polyreactivity screen of Harvey et al. (2022).
